Tested on: Saccharomyces cerevisiae
METHOD_NOTES: protein stability index of tFT-peptide fusion (C-terminal peptide) (PSI (0-1 scale)); higher = more stable (slower turnover);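 also: PSI is a weighted mean of sequencing reads over stability bins, variants kept only with over 10 reads, mCherry proximal and sfGFP distal, peptide attached via GGGS linker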
SETTINGS: genetic background: das1 deletion; temperature: 37 C
PROPERTY: protein stability index
The response must contain the number and no unit.

CONSTRUCT_SEQUENCE: VVLWVVCWGCWK
READING: 0.432

CONSTRUCT_SEQUENCE: GGSLWLVHLKTI
READING: 0.718

CONSTRUCT_SEQUENCE: RGFIFFALWSFC
READING: 0.532

CONSTRUCT_SEQUENCE: MMYTLSMLLRLR
READING: 0.528

CONSTRUCT_SEQUENCE: PSPPPYAPPIPA
READING: 0.586

Exam item: Sample `MGVTVRVEGIRA` — what was its protein stability index?
Marked response: 0.553

Exam item: What protein stability index value was documented for this sequence, `FLYSVLLICKFI` ?
Marked response: 0.389

Exam item: What value of measured protein stability index is listed for `VFLFSLLIVFFP` ?
Marked response: 0.385

Exam item: I would be grateful if you could share the reported protein stability index for `CVFGFACRVLVV` .
Marked response: 0.407

Exam item: # query: protein stability index of entry `VFSLFLVLNYPF`
Marked response: 0.495

====

System: Saccharomyces cerevisiae
METHOD_NOTES: protein stability index of tFT-peptide fusion (C-terminal peptide) (PSI (0-1 scale)); higher = more stable (slower turnover)
SETTINGS: genetic background: das1 deletion; temperature: 37 C
PROPERTY: protein stability index
In your answer, state the number alone without any accompanying words.

Example entries begin here.
CONSTRUCT_SEQUENCE: EGREGGGRGEVL
STUDY_TARGET: Saccharomyces cerevisiae
protein stability index: 0.496
//
CONSTRUCT_SEQUENCE: LFSVFSLVLFIF
STUDY_TARGET: Saccharomyces cerevisiae
protein stability index: 0.501
//
CONSTRUCT_SEQUENCE: SFFSQAIPILAA
STUDY_TARGET: Saccharomyces cerevisiae
protein stability index: 0.115
//
CONSTRUCT_SEQUENCE: AYVAPRRALMCS
STUDY_TARGET: Saccharomyces cerevisiae
protein stability index: 0.517
//
CONSTRUCT_SEQUENCE: EKTKTKRERKIN
STUDY_TARGET: Saccharomyces cerevisiae
protein stability index: 0.715

Exam item: Give the reported protein stability index for `ASLSSSRPPLLP` (system: Saccharomyces cerevisiae).
Marked response: 0.711

Exam item: Please provide the recorded protein stability index for `HRARILLIRICP` , tested on Saccharomyces cerevisiae.
Marked response: 0.64

Exam item: Reported protein stability index for Saccharomyces cerevisiae, given `LLSPFLLMLLFL` ?
Marked response: 0.432

====

System: Saccharomyces cerevisiae
METHOD_NOTES: protein stability index of tFT-peptide fusion (C-terminal peptide) (PSI (0-1 scale)); higher = more stable (slower turnover)
SETTINGS: genetic background: wild type; temperature: 30 C
sequences and their reported protein stability index
Form: value (number only, do not type unit).

CONSTRUCT_SEQUENCE: RPFHLLPPPPPL
STUDY_TARGET: Saccharomyces cerevisiae
protein stability index: 0.73

Exam item: So what's the measured protein stability index for this one? `IECACVPLVAGG`
Marked response: 0.656

Exam item: GET /values?readout=protein stability index&item= `SGVGCLVFGRGF`
Marked response: 0.645

Exam item: Look up protein stability index for this sequence: `ILRAGITYVYAV`
Marked response: 0.399

Exam item: Data request, read-out protein stability index, for `VVVRVAEGGGRW`
Marked response: 0.666

Exam item: Report protein stability index for `NPSRASAWPHVH` please.
Marked response: 0.607

Exam item: Would you kindly share the measured protein stability index for `EGGRRHSVGEQE` ?
Marked response: 0.679

Exam item: Reported protein stability index, sequence `RRGAVWDLVGDG` : ____
Marked response: 0.571

Exam item: Suppose we examine the sequence `GVSLQLHVAVLI` ; what protein stability index value has been reported?
Marked response: 0.44

Exam item: Please look up its protein stability index: `CPSLSALNHPLV`
Marked response: 0.701

Exam item: Fill blank: measured protein stability index of the sequence `SLCSSVQVWSVV` is ____.
Marked response: 0.693

Exam item: Could you tell me which protein stability index is on file for `PPFSHLPYLLPP` ?
Marked response: 0.685

Exam item: Please give the measured protein stability index for this sequence: `QNGNRPCCEKAW`
Marked response: 0.681

Exam item: Recorded protein stability index of `KSDSDNCQALTY` , please.
Marked response: 0.679

Exam item: Please give the measured protein stability index for this sequence: `GFLCDTVRLGCA`
Marked response: 0.702
